Test system: HEK293T;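 note: lentiviral eGFP-IRES-mCherry reporter pool sorted by FACS 96 h post-transduction, gated on mCherry-high cells, Illumina read counts normalized per million, median across four biological replicates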
PROTOCOL SUMMARY: median enrichment of reporter reads in eGFP-reduced (low/intermediate) vs eGFP-high sorted cells (eGFP-extension fusion abundance) (ratio); higher = stronger loss of eGFP-fusion protein abundance (more destabilising extension)
READOUT: median enrichment

substance="RTQDSE [CD3G]" result=0.492
substance="WHPCTQEDSAFTKHFHCLAKV [GPR12]" result=11.3
substance="LMSMSEGKENFGHQNPAPSELKELIYFMKLILLCVCSWC [GALNT15]" result=12.1
substance="CRDLAERWRSHQGPRDNYQEQKPLPVPH [IGSF22]" result=3.87
substance="YDLEFC [PQLC2L]" result=0.999
substance="QNASVRIKD [BORA]" result=0.475
substance="EILGSKYTSLFKNSNLI [OR10G4]" result=11.8
substance="LKPPSAGDPDKMAP [KRTAP1-1]" result=0.285
substance="WDFGSF [TSPAN31]" result=0.573
substance="GMSVVSCLQTPSPAQFI [SAMHD1]" result=1.45
substance="KQRRWTFCSNVYMYRIVHTSNSEDLYL [SLC10A7]" result=6.06
substance="YPLLKECEI [NCOA1]" result=0.498
substance="SGQGQPRD [SLC5A5]" result=0.35
substance="RRAGGGWWPRRQHTTRLHTCMLSPRGNGLYIAHFTLFRRHFIPALVLLEGLSRQSSSCSASVCDSPPSTPMALSLGDSSSPRK [PRKAB1]" result=5.36
substance="CRRPPGGGSGGRCVDPTASSSY [FRAT2]" result=0.875
substance="KPGNPYSFSNTGSFI [ADAM30]" result=0.59
substance="YKNQNGLR [ADGRB3]" result=0.651
substance="QGPPNLIAGHSQPSESESRFLLSLPSSPLETQLLSQVRQWAGSCFISLSLSIPLCLVSLPLVSAWQPPPPTYHPSPITQVNVT [PGLYRP4]" result=3.73
substance="WEAGWG [RPS6KB2]" result=1.06
substance="SYEQNKTLRKINRQGSDLFLKNLRSVDSQED [PRKACB]" result=2.01
substance="GVPGHSGLVQTPLL [PAF1]" result=0.255
substance="CGALRPS [PNKD]" result=0.539
substance="LFSSQLF [ADAM17]" result=5.62
substance="SGASQRSAHADNKVALSLE [FIBP]" result=0.209
substance="QDFRSICKCLFFIIALYIVCYLTR [DDX5]" result=10.2
substance="RQGPPLFWTP [CDHR2]" result=1.05
substance="QRFSSEKNLCLIF [PHACTR3]" result=9.78
substance="YEERDYLHIKNI [SLC35B1]" result=0.713
substance="SAGPWDTAFSFARLSACRPGGEPGPANESLVYLGCNSLKVQSFGLQSCPGPGSPGHCCSPRPWALVFLQHHTCCPFSISVCVK [MYO1F]" result=7.3
substance="ELQEAN [GZMB]" result=0.208
substance="RRRRRRGRAAGGTAQATQGRPLRPGGQGGRPASGDRLPPGLWQDVPSEGYFEEPPGPGDREAPVSSMNALPRTQARASGVHSE [MSANTD1]" result=0.682
substance="QGQVICSLSAFTPFNSLTPCQTYLSGTSSPDTFQRREKK [CREBZF]" result=4.04
substance="SNLSPRRPEVNRHLGRGRACV [NAXD]" result=1.3
substance="RRRRRRRRR [Arg09]" result=1.11
substance="SLFSLTYRMLV [ZNF639]" result=6.9
substance="YPVTPRDCLVQVVAAGGTHAAPRSEQTLPCRPAPAGPDGPLWRLDLLGQAALGLSAPSCLSRCDRARPKPGCTLLDWASLHCL [MLST8]" result=4.58
substance="LYKKKYCPYQKQILLCTF [RHOT1]" result=9.77
substance="QSFTSKFYLLCLPLLSRRSCLLPGSLTCSLS [LRRC1]" result=18
substance="RVTKKTMHHKIAQSSAEQFSGDPWTQ [CXCL6]" result=0.284
substance="RPRPGPALPPGAPTCNKCSEAGK [CYBA]" result=0.134
